Test system: InhA
Type: biochemical, Bacillus anthracis
RECORDED_ENDPOINT: Effect on InhA caseinolytic activity (in words)

* [Mn+2] [Mn2+] | do not
* [Ca+2] [Ca2+] | do not

* * *

System: InhA
Format: biochemical, Bacillus anthracis
RECORDED_ENDPOINT: Effect on InhA caseinolytic activity (in words)

* [Zn+2] | inhibit
* [Cu+2] | inhibit
